target: hLRRC33-proTGFβ1 (human, UniProt Q86YC3 19-650; P01137 30-390, limits assumed); assay: cell-based or functional assay
Sequence (Q86YC3 19-650 limits assumed, chain 1 of 2): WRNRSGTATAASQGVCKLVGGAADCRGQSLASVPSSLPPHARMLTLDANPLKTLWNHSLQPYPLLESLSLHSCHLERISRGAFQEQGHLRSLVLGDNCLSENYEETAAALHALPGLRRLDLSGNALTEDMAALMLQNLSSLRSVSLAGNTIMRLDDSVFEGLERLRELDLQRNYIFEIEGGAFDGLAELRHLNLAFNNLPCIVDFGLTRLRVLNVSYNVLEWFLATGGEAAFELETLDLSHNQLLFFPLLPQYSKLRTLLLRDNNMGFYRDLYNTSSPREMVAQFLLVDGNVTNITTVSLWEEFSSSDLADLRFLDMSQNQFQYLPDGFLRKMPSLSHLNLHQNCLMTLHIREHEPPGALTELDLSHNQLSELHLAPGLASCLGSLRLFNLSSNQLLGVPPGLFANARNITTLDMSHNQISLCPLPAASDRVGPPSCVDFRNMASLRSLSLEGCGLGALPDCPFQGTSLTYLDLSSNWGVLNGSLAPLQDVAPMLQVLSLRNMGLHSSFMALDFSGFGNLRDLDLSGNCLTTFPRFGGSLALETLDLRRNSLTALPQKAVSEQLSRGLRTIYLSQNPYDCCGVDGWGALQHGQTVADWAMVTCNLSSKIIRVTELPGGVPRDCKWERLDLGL
Sequence (P01137 30-390 limits assumed, chain 2 of 2): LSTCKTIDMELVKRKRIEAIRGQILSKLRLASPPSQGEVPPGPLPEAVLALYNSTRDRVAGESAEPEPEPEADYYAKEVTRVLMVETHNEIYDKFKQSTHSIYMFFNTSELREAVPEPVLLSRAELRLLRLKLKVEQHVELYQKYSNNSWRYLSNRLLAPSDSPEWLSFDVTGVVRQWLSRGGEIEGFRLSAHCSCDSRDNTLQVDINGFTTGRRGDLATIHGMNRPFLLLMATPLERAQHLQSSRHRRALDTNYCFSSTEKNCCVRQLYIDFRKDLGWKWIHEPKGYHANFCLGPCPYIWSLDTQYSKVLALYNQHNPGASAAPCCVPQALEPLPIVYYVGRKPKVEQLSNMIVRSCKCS
Please respond with reported IC50, reporter cell assay for every item in the list.
Answers are plain numbers, in nM.

Here's what some known entries look like.
[[record]]
binder = "Ab33 (antibody, V domains shown) VH: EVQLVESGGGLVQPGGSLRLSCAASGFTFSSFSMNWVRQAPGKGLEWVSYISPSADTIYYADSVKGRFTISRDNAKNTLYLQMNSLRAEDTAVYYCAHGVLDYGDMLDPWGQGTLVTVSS VL: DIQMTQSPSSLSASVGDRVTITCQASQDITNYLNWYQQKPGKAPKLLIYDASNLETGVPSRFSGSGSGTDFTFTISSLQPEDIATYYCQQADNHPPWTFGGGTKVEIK"
reported_metric = "IC50, reporter cell assay"
unit = "nM"
test_value = 0.7

[[record]]
binder = "Ab23 (antibody, V domains shown) VH: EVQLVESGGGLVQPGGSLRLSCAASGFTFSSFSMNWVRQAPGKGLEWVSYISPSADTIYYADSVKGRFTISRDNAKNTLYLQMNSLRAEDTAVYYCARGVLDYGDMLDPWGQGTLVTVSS VL: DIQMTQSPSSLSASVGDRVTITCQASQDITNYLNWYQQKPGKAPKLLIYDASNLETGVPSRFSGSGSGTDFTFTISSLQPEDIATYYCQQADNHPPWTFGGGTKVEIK"
reported_metric = "IC50, reporter cell assay"
unit = "nM"
test_value = 0.6


I have this binder here, Ab26 (antibody, V domains shown) VH: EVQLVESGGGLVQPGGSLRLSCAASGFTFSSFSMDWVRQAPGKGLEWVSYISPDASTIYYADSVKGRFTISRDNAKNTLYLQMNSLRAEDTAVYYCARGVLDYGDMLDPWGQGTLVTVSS VL: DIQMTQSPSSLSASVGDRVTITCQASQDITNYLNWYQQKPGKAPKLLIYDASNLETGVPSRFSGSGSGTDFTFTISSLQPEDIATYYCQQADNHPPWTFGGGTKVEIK , and I need its recorded IC50, reporter cell assay. 0.3
